These data points were gathered from the supplement of paper PMC9170038.

# System: MS2 coat protein
# assay.details: apparent KD of MS2 coat protein; higher = weaker reporter binding
# reported.conditions: Eterna round: R107; input ligand: theophylline 20 uM
reported.endpoint: apparent KD of MS2 coat protein (nM)
Give the value, in units of nM, as a plain number.

Param readout = apparent KD of MS2 coat protein; param system = MS2 coat protein; param query = AAAAGUAGGUCCAAUAAAACUACAUGUGAAGGAGCGCCCGAAAGGGCAGGUAGGUCGCACAUGAGGAUCACCCAUGUCCUACAAA [ArgEX 7 #OpenEnded] ; response: value 103

Param readout = apparent KD of MS2 coat protein; param system = MS2 coat protein; param query = GGUAGCAGGACUGAUACCAGUCCAGCGAAUCAUACGACGCAACAUGAGGAUCACCCAUGUGACCCUUGGCAGCAGACUGCUACCG [Same State Theophylline B GF 28] ; response: value 24.8

Param readout = apparent KD of MS2 coat protein; param system = MS2 coat protein; param query = ACGAACGCACCUGAGGAUCACCCGGGUGAUACCAGCCUGGAAACAGGCCCUUGGCAGCACCUAAAAUAAAGGUAACGUUCGAAUA [TheoAX9 #MicroSwitchBubble #AlternativeMS2] ; response: value 234

Param readout = apparent KD of MS2 coat protein; param system = MS2 coat protein; param query = AGCUCAUAGAGUGAUACCAGACUACAUGAGGAUCACCCAUGUUACUUUUAAAUAUCAUUUGUCCCUUGGCAGCACAUGAAGAGCA [JR_Nu_ExcTheophyB_Sub017] ; response: value 18.5

Param readout = apparent KD of MS2 coat protein; param system = MS2 coat protein; param query = CAAAUAAGAACAAACAAAUAACGGUUUUCGCGAGGACCGGUACGGCCGCCACUCGUGUGAAAUAACACAUGAGGAUCACCCAUGU [3'end-1] ; response: value 44.6

Param readout = apparent KD of MS2 coat protein; param system = MS2 coat protein; param query = CUAUAUUAUAGAAGGAGCGUCGAAAAUGGGUAAACAUGAGGAUCACCCAUGUAAAGGGAACGACAGGUAGGUCGCUAUAAUAUAG [AstromonsSSArgB#13] ; response: value 201
